tested on: Haemophilus influenzae; experiment: Antibacterial activity against Haemophilus influenzae ATCC 49247; format: functional
Lab note: anything with MIC below 8 µg/mL is marked yes (1); values at 8 µg/mL or higher are marked no (0).

## Input Is 8 µg/mL strictly greater than the compound's reported MIC? compound: CC[C@H]1OC(=O)/C=C\[C@H](C)[C@@H](OC2OC(C)C(O)C(N(C)C)C2O)[C@@H](CC=O)C[C@@H](C)C(=O)/C=C/C(C)=C/[C@@H]1COC1OC(C)C(O)C(OC)C1OC (some centres not stated)
## Output yes (1)

More entries:
## Input Is 8 µg/mL strictly greater than the compound's reported MIC? compound: "CC[C@H]1OC(=O)C[C@@H](O)[C@H](C)[C@@H](O[C@@H]2O[C@H](C)[C@@H](O)[C@@H](N(C)C)[C@H]2O)[C@@H](CC=O)C[C@@H](C)C(=O)/C=C/C(C)=C/[C@@H]1CO[C@@H]1O[C@H](C)[C@@H](O)[C@@H](OC)[C@H]1OC"
## Output yes (1)

## Input Can you handle CC[C@H]1OC(=O)C[C@@H](OC(C)=O)[C@H](C)[C@@H](OC2OC(C)C(O)C(N(C)C)C2O)[C@@H](CC=O)C[C@@H](C)C(=O)/C=C/C(C)=C/[C@@H]1COC1OC(C)C(O)C(OC)C1OC (some centres not stated) next?
## Output no (0)

## Input Can you handle CCOC(=O)/C=C/C[C@H]1C[C@@H](C)C(=O)/C=C/C(C)=C/[C@H](COC2OC(C)C(O)C(OC)C2OC)[C@@H](CC)OC(=O)C[C@@H](O)[C@H](C)[C@H]1OC1OC(C)C(O)C(N(C)C)C1O (some centres not stated) next?
## Output yes (1)

## Input Can you handle CC[C@H]1OC(=O)C[C@@H](O)[C@H](C)[C@@H](OC2OC(C)C(O)C(N(C)C)C2O)[C@@H](CC=O)C[C@@H](C)C(=O)CCC(C)C[C@@H]1COC1OC(C)C(O)C(OC)C1OC (some centres not stated) next?
## Output no (0)

## Input Can you handle CC[C@H]1O/C(O)=C/C(=O)[C@H](C)[C@@H](OC2OC(C)C(O)C(N(C)C)C2O)[C@@H](C/C=C/C(=O)OC)C[C@@H](C)C(=O)/C=C/C(C)=C/[C@@H]1COC1OC(C)C(O)C(OC)C1OC (some centres not stated) next?
## Output no (0)

## Input Can you handle CC[C@H]1OC(=O)C[C@@H](O)[C@H](C)[C@@H](OC2OC(C)C(O)C(N(C)C)C2O)[C@@H](C/C=C/C(=O)OC)C[C@@H](C)C(=O)/C=C/C(C)=C/[C@@H]1COC1OC(C)C(O)C(OC)C1OC (some centres not stated) next?
## Output no (0)

## Input Can you handle CC[C@H]1OC(=O)C[C@@H](O)[C@H](C)[C@@H](OC2OC(C)C(O)C(N(C)C)C2O)[C@@H](C/C=C/C(=O)O)C[C@@H](C)C(=O)/C=C/C(C)=C/[C@@H]1COC1OC(C)C(O)C(OC)C1OC (some centres not stated) next?
## Output no (0)

## Input Can you handle CC[C@H]1OC(=O)CC2(O)C(C=O)[C@@H](C[C@@H](C)C(=O)/C=C/C(C)=C/[C@@H]1CO[C@@H]1O[C@@H](C)[C@@H](O)[C@@H](OC)[C@@H]1OC)[C@H](O[C@@H]1O[C@@H](C)[C@@H](O)[C@@H](N(C)C)[C@H]1O)[C@H]2C (some centres not stated) next?
## Output no (0)

## Input Can you handle CC[C@H]1O/C(O)=C/C(=O)[C@H](C)[C@@H](OC2OC(C)C(O)C(N(C)C)C2O)[C@@H](CC=O)C[C@@H](C)C(=O)CCC(C)C[C@@H]1COC1OC(C)C(O)C(OC)C1OC (some centres not stated) next?
## Output no (0)
